Hi there, I'd appreciate the recorded inhibition for every entry that follows.
- Study system: Tyrosine-protein kinase CSK (Homo sapiens);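 also: each value is an averaged inhibition reading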
- Measurement context: at 1 µM
One number for each entry, in %.

// for each molecule in input: emit inhibition
1. COc1ccc(Nc2ncc(-c3ccccc3)o2)cc1OC
2. NS(=O)(=O)c1ccc(N/N=C2\C(=O)Nc3cccc(CCc4ccncc4)c32)cc1
3. COc1cccc(-n2ncc3c(N/N=C/c4ccc(C(=O)NCCN(C)C)cc4)ncnc32)c1
4. c1cnn2ncc(-c3ccnc(NCCCN4CCOCC4)n3)c2c1

Marked response:
-1.08
0.36
22
1.9

----------
- Study system: 5'-AMP-activated protein kinase catalytic subunit alpha-2 (Homo sapiens) (UniProt P54646)
- Sequence (P54646 whole entry, looked up): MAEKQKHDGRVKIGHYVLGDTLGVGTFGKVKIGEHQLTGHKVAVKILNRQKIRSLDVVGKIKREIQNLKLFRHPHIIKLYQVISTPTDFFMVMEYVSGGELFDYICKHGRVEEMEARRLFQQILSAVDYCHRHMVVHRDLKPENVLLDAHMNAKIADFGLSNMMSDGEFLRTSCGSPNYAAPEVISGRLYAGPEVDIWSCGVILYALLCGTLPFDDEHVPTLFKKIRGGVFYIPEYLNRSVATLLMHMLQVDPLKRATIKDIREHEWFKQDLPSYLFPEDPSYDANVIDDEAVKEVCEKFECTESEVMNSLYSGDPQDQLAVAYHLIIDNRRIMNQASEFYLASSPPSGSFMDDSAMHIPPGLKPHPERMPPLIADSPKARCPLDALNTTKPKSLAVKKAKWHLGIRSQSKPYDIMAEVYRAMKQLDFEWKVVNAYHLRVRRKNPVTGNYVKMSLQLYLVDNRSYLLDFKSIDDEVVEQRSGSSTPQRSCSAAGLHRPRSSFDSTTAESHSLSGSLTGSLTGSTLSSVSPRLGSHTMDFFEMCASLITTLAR
- Measurement context: at 1 µM
- Description: GSK_PKIS: AMPKA2 (A2B1G1) mean inhibition at 1 uM [Nanosyn]
Binary classification by inhibition, with 4% as an inclusive lower bound for condition met; all other cases are condition not met.

INSERT INTO measurements (compound, assigned_category) VALUES
  ('CNC(=O)c1cncc(/C=C/c2ccccc2C)c1', 'condition met'),
  ('O=C1Nc2ccccc2/C1=C1\CCc2cc(O)ccc21', 'condition met'),
  ('CC1=C(C(=O)Nc2ccc3[nH]ncc3c2)C(c2ccc(F)cc2)N=C(c2ccc(C(F)(F)F)nc2)N1 (stereo unspecified)', 'condition met'),
  ('Cc1cc(O)cc(C)c1/C=C/c1cncc(C(N)=O)c1', 'condition not met'),
  ('CN(c1ccc(NC(=O)NCCN2CCOCC2)cc1)c1ccnc(Nc2ccc(CS(C)(=O)=O)cc2)n1', 'condition met');

Alright, here's another compound for you.
Exam item: Can O=C(O[C@H]1CN[C@H](C#Cc2cc3ncnc(Nc4ccc(OCc5cccc(F)c5)c(Cl)c4)c3s2)C1)N1CCOCC1 be said to have inhibition at or above 4%?
Marked response: condition not met
